System: HS 578T breast
ASSAY EXPLANATION: NCI-60 one-dose screen, 48 h (100 = growth as untreated, 0 = no growth, -100 = all killed)
CONDITION DESCRIPTION: 10 µM unless noted
The panel holds about 83,000 compounds, 20% with a hit somewhere; the sample as a whole holds those more often. The source made the active and inactive calls. Rule for the calls: active = growth percent below 10; inactive = the rest.
MEASUREMENT NAME: growth

OCC(CO)(CCl)CCl : 105% (inactive)
CC(Cc1ccco1)C(=O)NC(N)=O (configuration not stated) : 109% (inactive)
CN1CCN(c2nc(-c3csc(-c4cccs4)n3)cc3ccccc23)CC1 : 71.3% (inactive)
CCN1CCN(C(=O)[C@]23CC[C@@H](C)[C@H](C)[C@H]2C2=CC[C@@H]4[C@@]5(C)C/C(=C/c6cccc(OC)c6OC)C(=O)C(C)(C)[C@@H]5CC[C@@]4(C)[C@]2(C)CC3)CC1 : 67.6% (inactive)
CC(C)(C)CC(C)(C)c1ccc(OCCOCC[N+](C)(C)CC(=O)[O-])cc1 : 114% (inactive)

For each entry beneath this line, provide reported growth.
1. CCN1CCN(C(=O)[C@@]2(C)CC[C@]3(C)CC[C@]4(C)C(=CC(=O)[C@@H]5[C@@]6(C)CC[C@H](OC7C[C@@H](O)[C@@H](O)C(C)O7)C(C)(C)[C@@H]6CC[C@]54C)[C@@H]3C2)CC1 (some centres not stated)
2. C=C(C)[C@@H]1CC[C@]2(C(=O)O)CC[C@]3(C)[C@H](CC[C@@H]4[C@@]5(C)C/C(=C/c6ccc(OC)cc6)C(=O)C(C)(C)[C@@H]5CC[C@]43C)[C@@H]12

["87.5% (inactive)", "49.9% (inactive)"]

====

System: IGROV1 ovarian
ASSAY EXPLANATION: NCI-60 one-dose screen, 48 h (100 = growth as untreated, 0 = no growth, -100 = all killed)
CONDITION DESCRIPTION: 10 µM unless noted
About 83,000 compounds went through this panel and 20% of them were active in at least one assay; those are over-represented in the sample as a whole.
Label class 1 when growth is at or above 70%; otherwise label class 0.

These recorded examples may help you get a feel for the data.
COC(c1ccccc1)(c1ccccc1)c1ccccc1 : class 1
CCCCn1c(-c2ccc(O)cc2)cn2c3c(=O)[nH]c(=O)n(C)c3nc12 : class 1

Does the reported growth for COc1ccc2c(c1)C/C(=C\c1cc(-c3cc(OC)c(OC)c(OC)c3)n[nH]1)C2=O fall at or above the 70% mark?
class 1

Now try CCSc1ncnc2c1ncn2C1OC(CO)C(O)C1O (stereo unspecified) .
class 0

Now try O=c1c(CNc2ccc(S(=O)(=O)Nc3nccs3)cc2)coc2ccccc12 .
class 1

Now try Cc1ccccc1-c1nc(C(Cl)Cl)nc2cc(-c3ccccc3)nn12 .
class 0

====

Tested on: NCI-H460 lung
ASSAY EXPLANATION: NCI-60 one-dose screen, 48 h
CONDITION DESCRIPTION: 10 µM unless noted
About 83,000 compounds went through this panel and 20% of them were active in at least one assay; those are over-represented in the sample as a whole. Active and inactive are the calls of the source. How the source made its calls: active means growth percent below 10; inactive means the rest.
Choose one outcome from this list and give only that: yes (1) for active, no (0) for inactive

CC1(c2ccccc2)OC1C(=O)O (centres undefined) : no (0)
COc1ccc(-c2nc3ccccn3c2-c2nc3ccc(Cl)cc3[nH]2)cc1 : no (0)
Cc1ccc(Cc2cnc(NC(=O)/C=C/c3cccc(C)c3)s2)cc1 : yes (1)
Nc1nc(N)c2nc3c(nc2n1)CCCCCCCCCC3 : no (0)
CC(=O)OCCCCCCn1c2ccccc2c2c3c(c4c5ccccc5n(C)c4c21)C(=O)N(O)C3=O : no (0)
CC1(C)C(=O)CC[C@]2(C)[C@H]3C(=O)C=C4[C@@H]5C[C@@](C)(C(=O)NCCNCCN)CC[C@]5(C)CC[C@@]4(C)[C@]3(C)CC[C@@H]12 : no (0)
Cn1cc(-c2nc(-c3cn(C)c4ncccc34)cs2)c2cc(F)ccc21 : no (0)
CC(CNc1nc(Nc2ccc(Cl)c(Cl)c2)nc(C(Cl)(Cl)Cl)n1)N(C)C (centres undefined) : yes (1)

What was the test verdict on O=C(/C=C/c1cccc2ccccc12)Nc1ncc(Cc2ccccc2)s1 ?
yes (1)

Now try Cc1cc(Nc2ccc(F)cc2)nc(N2CCN(c3ccnc4cc(Cl)ccc34)CC2)n1 .
no (0)

Now try CCOC(=O)C1OC1(c1ccccc1)c1ccccc1 (centres undefined) .
no (0)

Now try Cc1ccc(-c2nn(Cc3cn(-c4cc(C)nc5ccccc45)nn3)c3ncnc(N)c23)cc1 .
no (0)

Now try Cn1cc(-c2csc(-c3cn(CCNC(=O)OC(C)(C)C)c4ccccc34)n2)c2cccnc21 .
no (0)

====

Test system: SK-MEL-5 melanoma
ASSAY EXPLANATION: NCI-60 one-dose screen, 48 h
CONDITION DESCRIPTION: 10 µM unless noted
About 83,000 compounds went through this panel and 20% of them were active in at least one assay; those are over-represented in the sample as a whole. Active and inactive are the calls of the source. The calls were made as follows: active = growth percent below 10; inactive = the rest.
Choose one outcome from this list and give only that: Yes for active, No for inactive

These recorded examples may help you get a feel for the data.
C=C(C)[C@@H]1CC[C@]2(C)[C@H](CC[C@@H]3[C@H]4[C@H]5OC[C@@]4(CCC5(C)C)CC[C@]32C)[C@@]1(C)CCCN : No
COc1ccc2c(c1)c(-c1nc(-c3cn(C)c4ncccc34)cs1)cn2CCCN1CCCCC1 : No
Clc1ccc2c(NCCNc3nc(-c4ccccc4)cc(-c4ccccc4)n3)ccnc2c1 : Yes

What was the test verdict on O=C1/C(=C\c2ccc(Br)o2)SC(=S)N1CCc1ccc(O)cc1 ?
No

Now try Cn1cc(-c2nc(-c3c[nH]c4ncccc34)cs2)c2cc(Cl)ccc21 .
No

Now try CC1=CC(=O)N(c2cccc3c(N4C(=O)C=C(C)C4=O)cccc23)C1=O .
No

Now try C=C(C)[C@@H]1CC[C@]2(C(=O)O)CC[C@]3(C)[C@H](CC[C@@H]4[C@@]5(C)C/C(=C/c6ccc(OC)cc6)C(=O)C(C)(C)[C@@H]5CC[C@]43C)[C@@H]12 .
Yes

Now try O=P(O)(c1ccccc1)c1ccccc1I .
No

Now try CC(C)(C)c1ccc(OP(=S)(N/N=C/c2ccccc2O)Oc2ccc(C(C)(C)C)cc2)cc1 .
No

Now try NC1=C(C/C(N)=N\O)C(c2ccccc2Cl)c2c(ccc3ccccc23)O1 (stereo not given) .
No

Now try COc1cc(-c2cc(-c3nc4ccc(F)cc4[nH]3)[nH]n2)cc(OC)c1OC .
Yes

====

Tested on: HT29 colon
ASSAY EXPLANATION: NCI-60 one-dose screen, 48 h
CONDITION DESCRIPTION: 10 µM unless noted
About 83,000 compounds went through this panel and 20% of them were active in at least one assay; those are over-represented in the sample as a whole. Calls of active or inactive are those of the source. How the source made its calls: active means growth percent below 10; inactive means the rest.
Choose one outcome from this list and give only that: true (active), false (inactive)

These recorded examples may help you get a feel for the data.
N#C/C(=C\c1ccc(-c2ccc(Br)cc2)o1)c1nc(-c2ccco2)cs1 : false
CC(=O)c1c(C)[nH]c(-c2nc3ccc(N4CCN(C)CC4)cc3[nH]2)c1-c1ccc(OCC2CCOCC2)cc1 : true
Cn1cc(-c2csc(-c3c[nH]c4ccc(F)cc34)n2)c2cccnc21 : false
O=S(=O)(NCCNc1cc(-c2cn(-c3ccccc3)nc2-c2cccc(O)c2)ccn1)c1ccc(C(F)(F)F)cc1 : true
C=C(C)[C@@H]1CC[C@]2(C)[C@H](CC=C3[C@@H]4CC(C)(C)CC[C@]4(C(=O)OC)CC[C@]32C)[C@@]1(C)CC/C(N)=N/O : false

What was the test verdict on CCOC(=O)C1OC1(c1ccccc1)c1ccccc1 (centres undefined) ?
false

Now try CC(=O)Oc1ccccc1C(=O)/C=C/c1cccc([N+](=O)[O-])c1 .
false

Now try COc1ccc(-c2nc3ncccn3c2-c2nc3ccc(Br)cc3[nH]2)cc1 .
false

Now try CC1(C)CC[C@]2(C(=O)NCCNCCN)CC[C@]3(C)C(=CC[C@@H]4[C@@]5(C)CCC(=O)C(C)(C)[C@@H]5CC[C@]43C)[C@@H]2C1 .
true

Now try O=Cc1nc2ccccc2[nH]1 .
false

Now try COc1ccc(-n2c(/C=C/c3ccc(O)c(OC)c3)cc(/C=C/c3ccc(O)c(OC)c3)nc2=O)cc1 .
true

Now try O=C1CCN2C(=O)Nc3ccccc3C2C1 (centres undefined) .
false

Now try COc1ccc(O)c(-c2cc(-c3ccc(Cl)cc3)c(C#N)c(=O)[nH]2)c1 .
false

====

Tested on: CCRF-CEM leukemia
ASSAY EXPLANATION: NCI-60 one-dose screen, 48 h
CONDITION DESCRIPTION: 10 µM unless noted
This is part of a sample that, as a whole, favours compounds with a hit. Of some 83,000 tested, about 20% had one in any assay. Activity calls are given as the source filed them. The calls were made as follows: active = growth percent below 10; inactive = the rest.
Choose one outcome from this list and give only that: T for active, F for inactive

These recorded examples may help you get a feel for the data.
N=C(N)c1ccc(-c2ccc(-c3cc(F)cc(F)c3)o2)nc1 : T
Cc1nn(-c2ccc(Br)cc2)c2nc3[nH]c(=O)[nH]c(=O)c3nc12 : F
COc1cc(-c2nc(-c3ccccc3)c(-c3ccccc3)[nH]2)cc(OC)c1O : T
CCC(c1ccc(OC)cc1)C(CC)c1ccc(O)c(CN2CCCCC2)c1 (stereo unspecified) : F

What was the test verdict on Nc1ncnc2nc(Br)[nH]c12 ?
F

Now try O=S(=O)(NCCNc1cc(-c2cn(-c3ccccc3)nc2-c2cccc(O)c2)ccn1)c1ccc(Cl)cc1 .
T
